Attribute: self-splicing fitness (ln)
- EXPERIMENT DESCRIPTION: self-splicing fitness, log relative to wild type (ln ratio); higher = more splicing; Tetrahymena group I intron in knt gene, E. coli kanamycin selection, DiMSum; sequences stand for … in CUCUCU…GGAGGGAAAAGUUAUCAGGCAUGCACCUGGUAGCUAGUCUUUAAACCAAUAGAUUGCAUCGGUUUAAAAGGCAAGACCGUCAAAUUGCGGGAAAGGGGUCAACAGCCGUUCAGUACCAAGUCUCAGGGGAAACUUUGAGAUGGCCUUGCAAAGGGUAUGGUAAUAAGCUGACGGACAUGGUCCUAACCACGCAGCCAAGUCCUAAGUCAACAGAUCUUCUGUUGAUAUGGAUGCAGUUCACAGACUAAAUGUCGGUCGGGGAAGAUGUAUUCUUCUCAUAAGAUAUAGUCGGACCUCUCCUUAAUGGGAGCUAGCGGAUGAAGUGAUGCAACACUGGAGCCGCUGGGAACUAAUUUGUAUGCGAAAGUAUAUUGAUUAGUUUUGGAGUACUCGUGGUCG;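 note: selection with 25 µg/mL kanamycin versus none on LB agar overnight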
- ASSAY CONTEXT: 30 °C

Some sequences with recorded self-splicing fitness (ln):
INSERT INTO assay_data (monomer_sequence, assay_endpoint, data_value) VALUES
  ('UCACAGCAAUAUUACGGUGA', 'self-splicing fitness (ln)', -3.99),
  ('GCGUAGCAAUAUUACGGCUG', 'self-splicing fitness (ln)', -3.74),
  ('CAAAAGCAAUAUUACGACUC', 'self-splicing fitness (ln)', -1.44),
  ('CCCCAGCAAUAUUACGAACG', 'self-splicing fitness (ln)', -3.44),
  ('AACCAGCAAUAUUACGCCUC', 'self-splicing fitness (ln)', -0.868);

Indicate its recorded self-splicing fitness (ln); the sequence in question is CCGUAGCAAUAUUACGGAAC
-3.54

Give self-splicing fitness (ln) for CAGCAGCAAUAUUACGUCUC
-1.15

Look up and report measured self-splicing fitness (ln) for this entry: AUACAGCAAUAUUACGUCAG
-3.05

Give me measured self-splicing fitness (ln), please, for this sequence: UUCCAGCAAUAUUACGUGAA
0.179

Name the recorded self-splicing fitness (ln) of the sequence listed here: GUAAAGCAAUAUUACGUUAA
-2

Provide one value: measured self-splicing fitness (ln) of UGACAGCAAUAUUACGGCUA
-0.14

Identify the reported self-splicing fitness (ln) for the following entry. AGCCAGCAAUAUUACGGCAU
-1.31

Recall and state the measured self-splicing fitness (ln) for UUCUAGCAAUAUUACGCACU .
-1.79

Supply measured self-splicing fitness (ln) of CUUAAGCAAUAUUACGUGGG in your reply.
-4.03

Read the entry GUAUAGCAAUAUUACGAUAG and write its reported self-splicing fitness (ln).
-1.67

// Input: UGACAGCAAUAUUACGCCUG . Output its self-splicing fitness (ln) only.
-0.292

Give self-splicing fitness (ln) for ACUCAGCAAUAUUACGGGGU
-3.84

Name the recorded self-splicing fitness (ln) of the item UUCAAGCAAUAUUACGCGGG in your answer.
-3.35

Tell us which self-splicing fitness (ln) value is on record for UCUAAGCAAUAUUACGAGCA
-1.38

Quote self-splicing fitness (ln) reported for UUGAAGCAAUAUUACGGUUC please.
-3.01

Fill in reported self-splicing fitness (ln) for this entry: UAUUAGCAAUAUUACGAUUA
0.102

Look up and state reported self-splicing fitness (ln) for UAAUAGCAAUAUUACGCGUC
-2.88

Provide one value: measured self-splicing fitness (ln) of UUUCAGCAAUAUUACGUCGA
-1.11

Give the reported value of self-splicing fitness (ln) for this record: CAAUAGCAAUAUUACGUGAC
-3.84

Hey, just so you know, these numbers are from the supplement of paper PMC7877785.
